Origin of measurements: ChEMBL document CHEMBL3433997

# inhibition per entry
target-or-system: Glucose transporter (Leishmania mexicana) (UniProt O61059)
test: ST_JUDE_LEISH: Cytotoxicity at 2uM final concentration against transgenic Leishmania Mexicana promastigotes LmGT2 that are glucose transport deficient and complemented with the L. Mexicana glucose transporter 2. Activity is measured by DNA content using SYBR green in vitro
Format: functional
Give the value in % but do not write % after it.

Study these solved cases before continuing.
{"compound": "Cn1c2c(c3ccccc31)CN(CCC1(c3ccc(Cl)c(Cl)c3)CN(C(=O)c3ccccc3)CCO1)CC2 (stereo not given)", "inhibition / %": 2.38}
{"compound": "COc1ccc(-c2nc3c(N)nc(N)nc3nc2-c2ccccc2Cl)cc1.COc1ccc(-c2nc3nc(N)nc(N)c3nc2-c2ccccc2Cl)cc1", "inhibition / %": 6.97}
{"compound": "O=C(Cc1ccc(NC(=O)c2ccc(O)c(-c3cccc([N+](=O)[O-])c3)c2)cc1)NCCN1CCCCC1", "inhibition / %": -0.03}

Challenge: Could you share which inhibition value was measured for CCc1ccc(OCCCON2C(=N)N=C(N)NC2(C)C)cc1 ?
Response given: 3.21

Challenge: Could you share which inhibition value was measured for Nc1ccnc(N2CCC(CCOc3cc(C(F)(F)F)nc4c(C(F)(F)F)cccc34)CC2)c1 ?
Response given: 10.2

Challenge: Could you share which inhibition value was measured for Oc1cc2c(cc1CN1CCN(Cc3ccccc3F)CC1)CCC2 ?
Response given: 2.62

Challenge: Could you share which inhibition value was measured for COc1ccc(CNCc2ccc(F)cc2)cc1-c1ccc(S(=O)(=O)NCCN2CCCC2)c(C)c1 ?
Response given: -2.85

Challenge: Could you share which inhibition value was measured for COc1cc2c(cc1C(F)(F)F)N(C(=O)Nc1cc(F)cc(-c3cncnc3)c1)CC2 ?
Response given: 0.07
